target: UniProt P33032; test: Inhibition of [125I]-NDP- alpha-MSH binding to human melanocortin 5 receptor
Sequence (P33032 whole entry): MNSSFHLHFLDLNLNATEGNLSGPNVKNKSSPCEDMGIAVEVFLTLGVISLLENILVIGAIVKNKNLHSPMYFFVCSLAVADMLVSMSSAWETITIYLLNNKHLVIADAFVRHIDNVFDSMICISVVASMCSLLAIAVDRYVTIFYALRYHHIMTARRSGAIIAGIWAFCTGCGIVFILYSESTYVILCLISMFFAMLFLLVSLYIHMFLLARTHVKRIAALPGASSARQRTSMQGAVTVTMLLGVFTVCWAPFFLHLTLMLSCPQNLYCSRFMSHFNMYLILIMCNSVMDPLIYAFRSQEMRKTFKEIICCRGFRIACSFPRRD
Parameter: IC50 (µM)

(1) COc1ccc(N2N=C(Sc3ccc(Cl)cc3)CC(CC[C@@H](C)NC(=O)[C@H]3CCNC[C@@H]3c3ccc(F)cc3)C2=O)cc1 (stereo in doubt; 63)
(2) COc1ccc(N2N=C(Sc3ccc(Cl)cc3)CC(CC[C@@H](C)NC(=O)C3CNC[C@@H]3c3ccc(F)cc3)C2=O)cc1 (single isomer, unassigned; 67)
Between 1 and 2 , whose measured IC50 reads higher? Refer to your chosen entry by its label in the reply.
1
(1: 3.1 µM, 2: 0.69 µM)

----------
target: UniProt P32245; test: Effective concentration at human melanocortin 4 receptor in cAMP release assay
Parameter: EC50 (nM)

(P) COc1ccc(N2N=C(Sc3ccc(Cl)cc3)CC(CC[C@@H](C)NC(=O)C3CNC[C@@H]3c3ccc(F)cc3)C2=O)cc1 (single isomer, unassigned; 66)
(Q) COc1ccc(N2N=C(Sc3ccc(Cl)cc3)CC(CC[C@@H](C)NC(=O)C3CNC[C@@H]3c3ccc(F)cc3)C2=O)cc1 (single isomer, unassigned; 67)
(R) COc1ccc(-n2nc(Sc3ccc(Cl)cc3)cc(CC[C@@H](C)NC(=O)[C@H]3CNC[C@@H]3c3ccc(C)cc3)c2=O)cc1
(S) COc1ccc(N2N=C(Sc3ccc(Cl)cc3)CC(CC[C@@H](C)NC(=O)[C@H]3CCNC[C@@H]3c3ccc(F)cc3)C2=O)cc1 (stereo in doubt; 62)
(T) COc1ccc(-n2nc(Sc3ccc(Cl)cc3)cc(CC[C@@H](C)NC(=O)[C@H]3CNC[C@@H]3c3ccc(F)cc3F)c2=O)cc1
Which order do these items fall in when sorted by EC50 from largest to smallest? Rank the items, then write their labels in that order.
P, R, S, T, Q

----------
biological target: Melanocortin receptor 3 (Homo sapiens, UniProt P41968); assay: Effective concentration against human melanocortin 3 receptor in cAMP release assay
Sequence (P41968 whole entry): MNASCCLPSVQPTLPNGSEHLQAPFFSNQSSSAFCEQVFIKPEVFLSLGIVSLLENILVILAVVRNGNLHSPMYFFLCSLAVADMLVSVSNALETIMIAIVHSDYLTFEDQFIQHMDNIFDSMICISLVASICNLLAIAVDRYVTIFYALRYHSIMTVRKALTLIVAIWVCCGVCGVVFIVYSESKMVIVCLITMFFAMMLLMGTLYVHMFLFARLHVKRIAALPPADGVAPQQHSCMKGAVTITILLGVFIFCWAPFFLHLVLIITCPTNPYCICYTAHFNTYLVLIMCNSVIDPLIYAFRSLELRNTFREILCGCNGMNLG
pEC50: −log10 of the molar value.
Parameter: pEC50

(a) COc1ccc(-n2nc(Sc3ccc(Cl)cc3)cc(CC[C@@H](C)NC(=O)[C@H]3CNC[C@@H]3c3ccc(F)cc3)c2=O)cc1
(b) COc1ccc(N2N=C(Sc3ccc(Cl)cc3)CC(CC[C@@H](C)NC(=O)[C@H]3CCNC[C@@H]3c3ccc(F)cc3)C2=O)cc1 (stereo in doubt; 63)
Hey, between a and b which has a smaller measured pEC50? Please reply using the label of the selected record.
a

----------
target: Melanocyte-stimulating hormone receptor (Homo sapiens)
Sequence (Q01726 whole entry): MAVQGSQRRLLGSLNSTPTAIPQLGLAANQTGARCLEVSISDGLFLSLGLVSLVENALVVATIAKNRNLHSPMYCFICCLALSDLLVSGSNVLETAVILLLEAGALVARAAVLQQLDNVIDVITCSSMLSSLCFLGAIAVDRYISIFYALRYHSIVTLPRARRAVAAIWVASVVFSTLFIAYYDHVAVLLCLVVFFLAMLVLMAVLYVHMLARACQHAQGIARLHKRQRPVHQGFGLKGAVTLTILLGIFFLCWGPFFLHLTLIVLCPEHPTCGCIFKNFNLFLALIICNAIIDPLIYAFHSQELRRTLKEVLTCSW
Parameter: IC50 (nM)
Give your result in nM as a bare value.

Reported IC50, compound COc1ccc(N2N=C(Sc3ccc(Cl)cc3)CC(CC[C@@H](C)NC(=O)C3CNC[C@@H]3c3ccc(F)cc3)C2=O)cc1 (single isomer, unassigned; 67) : ____
290

----------
target: Melanocortin receptor 4 (Homo sapiens, UniProt P32245); assay: Maximum percentage of cAMP accumulation relative to alpha-MSH at human melanocortin 4 receptor at 10 uM; assay type: functional
Sequence (P32245 whole entry): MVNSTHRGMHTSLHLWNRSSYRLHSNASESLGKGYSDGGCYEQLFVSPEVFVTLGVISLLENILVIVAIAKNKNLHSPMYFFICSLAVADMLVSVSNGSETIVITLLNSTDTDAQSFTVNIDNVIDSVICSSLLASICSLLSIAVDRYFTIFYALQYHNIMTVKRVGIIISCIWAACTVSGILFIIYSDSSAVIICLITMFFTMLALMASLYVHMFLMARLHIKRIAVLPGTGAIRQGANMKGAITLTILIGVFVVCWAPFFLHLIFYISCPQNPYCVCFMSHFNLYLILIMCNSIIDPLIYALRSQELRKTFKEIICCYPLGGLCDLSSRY
Parameter: Max (%)

Use these answered entries as a reference point.
Compound | Observed
COc1ccc(-n2nc(Sc3ccc(Cl)cc3)cc(CC[C@@H](C)NC(=O)[C@H]3CCNC[C@@H]3c3ccccc3F)c2=O)cc1 | 75
COc1ccc(-n2nc(Sc3ccc(Cl)cc3)cc(CC[C@@H](C)NC(=O)[C@H]3CCNC[C@@H]3c3ccc(C#N)cc3)c2=O)cc1 | 81
COc1ccc(-n2nc(Sc3ccc(Cl)cc3)cc(CC[C@@H](C)NC(=O)[C@H]3CCNC[C@@H]3c3ccc(Cl)cc3)c2=O)cc1 | 101
COc1ccc([C@H]2CNC[C@@H]2C(=O)N[C@H](C)CCc2cc(Sc3ccc(Cl)cc3)nn(-c3ccc(OC)cc3)c2=O)cc1 | 67

(a) COc1ccc(N2N=C(Sc3ccc(Cl)cc3)CC(CC[C@@H](C)NC(=O)C3CNC[C@H]3c3ccc(F)cc3)C2=O)cc1 (single isomer, unassigned; 69)
(b) COc1ccc(N2N=C(Sc3ccc(Cl)cc3)CC(CC[C@@H](C)NC(=O)[C@H]3CCNC[C@@H]3c3ccc(F)cc3)C2=O)cc1 (stereo in doubt; 62)
# argmax over Max for candidates a and b Respond using the label that marks the chosen record.
b
